Where do these numbers come from? They come from patent US10800730B2.

Tested on: EL-4 (lymphoma)
Experiment: 72-hour IC50 toward EL-4 cancer cell line
Type: cell-based
measurement-kind: IC50 (nM)

{"molecule": "C=C1C[C@]23C[C@@]1(O)CC[C@H]2[C@@]12C=CC(=O)C(C)(C(=O)O1)[C@H]2[C@@H]3C(=O)OC", "reading-unit": "nM", "recorded-number": 850}
